Every entry's value here was drawn from patent US9645128B2.

Below, each entry is listed alongside its reported melting point.
reported_property: melting point

{"columns": ["compound", "observed"],
 "data": [
  ["O=c1c(Cc2cccc(O)c2)nc2c(Cc3ccccc3)[nH]c(-c3ccc(O)cc3)cn1-2 [3iso-CTZ, 3-isocoelenterazine]", "160 to 162 °C (dec.)"],
  ["COc1ccc(Cc2nc3c(Cc4ccccc4)[nH]c(-c4ccc(O)cc4)cn-3c2=O)cc1 [meo-CTZ, meo-coelenterazine]", "137 to 139 °C (dec.)"],
  ["Cc1cccc(Cc2nc3c(Cc4ccccc4)[nH]c(-c4ccc(O)cc4)cn-3c2=O)c1 [3me-CTZ, 3me-coelenterazine]", "142 to 145 °C (dec.)"],
  ["O=c1c(Cc2ccc(C(F)(F)F)cc2)nc2c(Cc3ccccc3)[nH]c(-c3ccc(O)cc3)cn1-2 [cf3-CTZ, cf3-coelenterazine]", "157 to 161 °C (dec.)"],
  ["CC(c1ccccc1)c1nc2c(Cc3ccccc3)[nH]c(-c3ccc(O)cc3)cn-2c1=O (stereo not shown) [αmeh-CTZ, αmeh-coelenterazine]", "143 to 145 °C (dec.)"],
  ["Cc1ccc(Cc2nc3c(Cc4ccccc4)[nH]c(-c4ccc(O)cc4)cn-3c2=O)cc1 [me-CTZ, me-coelenterazine]", "150 to 152 °C (dec.)"],
  ["COc1cccc(Cc2nc3c(Cc4ccccc4)[nH]c(-c4ccc(O)cc4)cn-3c2=O)c1 [3meo-CTZ, 3meo-coelenterazine]", "136 to 140 °C (dec.)"]
]}
